// data source = patent US11566007B2

Biological target: NRAS G12C (Homo sapiens (Human), UniProt P01111+P62937, G12C)
Sequence (P01111 whole entry G12C): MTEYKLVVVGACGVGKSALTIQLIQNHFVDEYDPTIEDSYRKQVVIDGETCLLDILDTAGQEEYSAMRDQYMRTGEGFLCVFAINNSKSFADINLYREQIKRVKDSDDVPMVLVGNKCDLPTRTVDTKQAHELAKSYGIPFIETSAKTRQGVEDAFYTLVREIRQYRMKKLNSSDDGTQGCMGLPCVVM
Sequence (P62937 whole entry): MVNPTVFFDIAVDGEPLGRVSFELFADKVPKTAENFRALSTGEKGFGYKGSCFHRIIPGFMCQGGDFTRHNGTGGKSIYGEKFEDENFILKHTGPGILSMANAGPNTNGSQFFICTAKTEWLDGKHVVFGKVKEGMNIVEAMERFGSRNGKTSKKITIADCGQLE
Assay: Ras-Raf (BRAF RBD) disruption / FRET / MOA assay, NRAS G12C
Assay type: biochemical
Conditions: read-out: IC50* NRAS G12C FRET data
MEASURED PARAMETER: IC50

Use these answered entries as a reference point.
| COMPOUND | SYSTEM NAME | IC50 |
| --- | --- | --- |
| C=CC(=O)N1CC[C@H](C(=O)N(C)[C@H](C(=O)N[C@H]2Cc3cccc(c3)-c3ccc4c(c3)c(c(-c3cc(C5=CCN(C)CC5)cnc3[C@H](C)OC)n4CC)CC(C)(C)COC(=O)[C@@H]3CCCN(N3)C2=O)C(C)C)C1 (atropisomer, axis not shown) [Example A513] | NRAS G12C (Homo sapiens (Human), UniProt P01111+P62937, G12C) | 10 to 100 nM |
| C=CC(=O)N1CCO[C@@H]2CN(C(=O)N(C)[C@H](C(=O)N[C@H]3Cc4nc(cs4)-c4ccc5c(c4)c(c(-c4cccnc4[C@H](C)OC)n5CC)CC(C)(C)COC(=O)[C@@H]4CCCN(N4)C3=O)C(C)C)C[C@H]21 (atropisomer, axis not shown) [Example A543] | NRAS G12C (Homo sapiens (Human), UniProt P01111+P62937, G12C) | < 10 nM |
| C=CC(=O)N1CCN(C(=O)N(C)[C@H](C(=O)N[C@H]2Cc3nc(cs3)-c3ccc4c(c3)c(c(-c3cccnc3[C@H](C)OC)n4CC)CC(C)(C)COC(=O)[C@@H]3CCCN(N3)C2=O)C(C)C)C2(CC2)C1 (atropisomer, axis not shown) [Example A395] | NRAS G12C (Homo sapiens (Human), UniProt P01111+P62937, G12C) | 100 to 1000 nM |

Let's switch to this compound now.
According to the records, this compound CCn1c(-c2ccccc2CN(C)C)c2c3cc(ccc31)-c1cc(O)cc(c1)C[C@H](NC(=O)[C@H](C(C)C)N(C)C(=O)c1ncc(NC(=O)/C=C/CN(C)C)n1C)C(=O)N1CCC[C@H](N1)C(=O)OCC(C)(C)C2 [Example A116] displays IC50 of < 10 nM
